Measured values drawn from ChEMBL document CHEMBL2424622 for this set.

- Target entity: Tyrosine-protein kinase Lck (Homo sapiens) (UniProt P06239)
- Sequence (P06239 2-509 limits assumed): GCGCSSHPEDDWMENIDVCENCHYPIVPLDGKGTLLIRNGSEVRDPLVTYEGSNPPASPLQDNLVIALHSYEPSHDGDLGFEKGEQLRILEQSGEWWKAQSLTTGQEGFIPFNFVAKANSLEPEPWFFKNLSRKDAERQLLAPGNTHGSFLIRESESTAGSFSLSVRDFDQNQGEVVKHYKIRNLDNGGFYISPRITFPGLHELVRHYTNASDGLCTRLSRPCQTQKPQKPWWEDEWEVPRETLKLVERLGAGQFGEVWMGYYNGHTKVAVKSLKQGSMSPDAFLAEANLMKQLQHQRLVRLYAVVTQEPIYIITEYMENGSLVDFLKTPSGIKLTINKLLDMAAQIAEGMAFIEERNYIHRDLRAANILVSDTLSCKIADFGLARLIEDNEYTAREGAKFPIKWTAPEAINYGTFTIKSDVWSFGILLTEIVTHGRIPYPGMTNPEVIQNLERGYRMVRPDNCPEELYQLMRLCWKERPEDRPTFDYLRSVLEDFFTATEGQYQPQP
- Method description: Competitive binding affinity to LCK (unknown origin) at 10 uM in presence of ATP relative to control
Endpoint name: inhibition (%)

structure_notation=O[C@H]1CC[C@H](Nc2nccc(-n3nnc4ccccc43)n2)CC1 measured=65
structure_notation=N[C@H]1CC[C@H](Nc2nccc(-n3nnc4ccccc43)n2)CC1 measured=81
structure_notation=O[C@H]1CC[C@H](Nc2nccc(-c3n[nH]c4ccccc34)n2)CC1 measured=87
structure_notation=O=C([C@H]1CC[C@H](Nc2nccc(-n3nnc4ccccc43)n2)CC1)N1CCOCC1 measured=70

* * *

- Test system: Receptor-type tyrosine-protein kinase FLT3 (Homo sapiens), P36888 [N841I]
- Method description: Competitive binding affinity to FLT3 N841I mutant (unknown origin) at 10 uM in presence of ATP relative to control
Endpoint name: inhibition (%)

structure_notation=O[C@H]1CC[C@H](Nc2nccc(-c3n[nH]c4ccccc34)n2)CC1 units_label=% measured=100
structure_notation=O[C@H]1CC[C@H](Nc2nccc(-n3ncc4ccccc43)n2)CC1 units_label=% measured=97
structure_notation=O[C@H]1CC[C@H](Nc2nccc(-n3nnc4ccccc43)n2)CC1 units_label=% measured=98
